# Test system: cyBCMA
# PROCEDURE_SUMMARY: Kinetics and affinity of cyBCMA/human IgG interactions by SPR (Bio-Rad Proteon XPR36)
# Assay type: binding, cynomolgus
# RUN_CONDITIONS: 37° C.
Catalogue of molecules with associated ka (1/Ms) cyBCMA @ 37° C.
MEASURED_PARAMETER: ka (1/Ms) cyBCMA @ 37° C. (M⁻¹ s⁻¹)

[[record]]
molecule = "L3.PY/L1.FF/H2.QL: anti-BCMA antibody (antibody, V domains shown) VH: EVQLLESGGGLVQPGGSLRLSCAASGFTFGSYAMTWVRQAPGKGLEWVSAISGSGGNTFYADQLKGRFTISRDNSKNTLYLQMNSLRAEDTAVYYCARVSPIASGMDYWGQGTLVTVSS VL: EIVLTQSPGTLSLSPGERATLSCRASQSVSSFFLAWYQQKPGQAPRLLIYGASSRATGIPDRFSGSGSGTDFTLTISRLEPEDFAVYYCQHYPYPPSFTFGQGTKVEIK"
measured_parameter = "ka (1/Ms) cyBCMA @ 37° C."
measured = "2.36e+06"

[[record]]
molecule = "L3.PY/L1.PS/H2.HA: anti-BCMA antibody (antibody, V domains shown) VH: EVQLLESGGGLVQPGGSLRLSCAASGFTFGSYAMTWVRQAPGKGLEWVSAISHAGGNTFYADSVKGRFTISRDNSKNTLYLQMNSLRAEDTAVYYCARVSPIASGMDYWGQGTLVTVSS VL: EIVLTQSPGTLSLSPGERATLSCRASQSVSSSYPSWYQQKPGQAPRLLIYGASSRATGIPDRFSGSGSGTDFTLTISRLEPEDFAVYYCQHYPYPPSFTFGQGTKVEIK"
measured_parameter = "ka (1/Ms) cyBCMA @ 37° C."
measured = "1.45e+06"

[[record]]
molecule = "L3.PY/L3.KY/H2.DY: anti-BCMA antibody (antibody, V domains shown) VH: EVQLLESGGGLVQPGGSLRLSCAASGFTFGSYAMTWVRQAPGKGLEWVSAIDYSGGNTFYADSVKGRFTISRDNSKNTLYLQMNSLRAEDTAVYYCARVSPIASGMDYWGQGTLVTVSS VL: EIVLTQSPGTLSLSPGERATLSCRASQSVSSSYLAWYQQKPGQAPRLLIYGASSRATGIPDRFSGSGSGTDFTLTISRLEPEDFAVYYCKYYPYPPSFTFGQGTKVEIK"
measured_parameter = "ka (1/Ms) cyBCMA @ 37° C."
measured = "1.96e+06"

[[record]]
molecule = "L3.PY/L1.FF/H2.YQ: anti-BCMA antibody (antibody, V domains shown) VH: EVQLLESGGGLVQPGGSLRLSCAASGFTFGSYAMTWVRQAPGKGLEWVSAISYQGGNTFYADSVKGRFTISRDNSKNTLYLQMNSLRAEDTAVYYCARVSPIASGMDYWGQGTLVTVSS VL: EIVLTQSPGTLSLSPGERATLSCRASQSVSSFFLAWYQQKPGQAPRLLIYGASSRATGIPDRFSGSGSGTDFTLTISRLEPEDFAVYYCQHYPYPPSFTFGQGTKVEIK"
measured_parameter = "ka (1/Ms) cyBCMA @ 37° C."
measured = "2.19e+06"

[[record]]
molecule = "L3.PY/L3.KF/H2.QL: anti-BCMA antibody (antibody, V domains shown) VH: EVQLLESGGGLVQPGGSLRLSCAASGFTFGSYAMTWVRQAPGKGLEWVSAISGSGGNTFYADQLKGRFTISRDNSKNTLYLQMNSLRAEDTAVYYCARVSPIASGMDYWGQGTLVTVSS VL: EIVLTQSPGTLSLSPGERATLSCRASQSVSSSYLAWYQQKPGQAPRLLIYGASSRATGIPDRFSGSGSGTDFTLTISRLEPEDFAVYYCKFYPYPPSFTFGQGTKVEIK"
measured_parameter = "ka (1/Ms) cyBCMA @ 37° C."
measured = "1.42e+06"

[[record]]
molecule = "L3.PY/L3.KY/H3.YA: anti-BCMA antibody (antibody, V domains shown) VH: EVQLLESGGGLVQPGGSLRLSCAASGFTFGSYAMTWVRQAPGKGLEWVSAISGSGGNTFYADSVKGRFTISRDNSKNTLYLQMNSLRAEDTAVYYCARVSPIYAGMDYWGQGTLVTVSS VL: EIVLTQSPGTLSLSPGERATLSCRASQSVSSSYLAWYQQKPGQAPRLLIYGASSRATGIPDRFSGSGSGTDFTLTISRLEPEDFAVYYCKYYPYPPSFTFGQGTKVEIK"
measured_parameter = "ka (1/Ms) cyBCMA @ 37° C."
measured = "1.84e+06"

[[record]]
molecule = "L3.PY/L3.KY/H3.TAQ: anti-BCMA antibody (antibody, V domains shown) VH: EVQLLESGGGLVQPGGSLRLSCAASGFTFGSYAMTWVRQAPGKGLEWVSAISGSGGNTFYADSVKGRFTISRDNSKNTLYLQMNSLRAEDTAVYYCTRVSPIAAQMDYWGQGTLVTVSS VL: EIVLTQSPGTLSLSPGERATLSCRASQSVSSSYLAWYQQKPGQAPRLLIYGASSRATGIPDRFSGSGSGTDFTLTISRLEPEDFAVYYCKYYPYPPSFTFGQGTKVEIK"
measured_parameter = "ka (1/Ms) cyBCMA @ 37° C."
measured = "1.81e+06"

[[record]]
molecule = "L3.PY/L1.AH/H2.YQ: anti-BCMA antibody (antibody, V domains shown) VH: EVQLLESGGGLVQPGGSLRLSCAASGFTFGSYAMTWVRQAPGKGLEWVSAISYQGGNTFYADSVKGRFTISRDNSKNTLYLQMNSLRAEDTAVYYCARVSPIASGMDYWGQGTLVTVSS VL: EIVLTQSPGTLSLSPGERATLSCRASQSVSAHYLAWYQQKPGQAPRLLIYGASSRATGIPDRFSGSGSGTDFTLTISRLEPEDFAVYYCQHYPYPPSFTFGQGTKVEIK"
measured_parameter = "ka (1/Ms) cyBCMA @ 37° C."
measured = "1.58e+06"


The measured values listed here are drawn from patent US11814435B2.
